# study.target: human ether-à-go-go-related gene (hERG) potassium channel (human, UniProt Q12809)
# Sequence (Q12809 whole entry, looked up): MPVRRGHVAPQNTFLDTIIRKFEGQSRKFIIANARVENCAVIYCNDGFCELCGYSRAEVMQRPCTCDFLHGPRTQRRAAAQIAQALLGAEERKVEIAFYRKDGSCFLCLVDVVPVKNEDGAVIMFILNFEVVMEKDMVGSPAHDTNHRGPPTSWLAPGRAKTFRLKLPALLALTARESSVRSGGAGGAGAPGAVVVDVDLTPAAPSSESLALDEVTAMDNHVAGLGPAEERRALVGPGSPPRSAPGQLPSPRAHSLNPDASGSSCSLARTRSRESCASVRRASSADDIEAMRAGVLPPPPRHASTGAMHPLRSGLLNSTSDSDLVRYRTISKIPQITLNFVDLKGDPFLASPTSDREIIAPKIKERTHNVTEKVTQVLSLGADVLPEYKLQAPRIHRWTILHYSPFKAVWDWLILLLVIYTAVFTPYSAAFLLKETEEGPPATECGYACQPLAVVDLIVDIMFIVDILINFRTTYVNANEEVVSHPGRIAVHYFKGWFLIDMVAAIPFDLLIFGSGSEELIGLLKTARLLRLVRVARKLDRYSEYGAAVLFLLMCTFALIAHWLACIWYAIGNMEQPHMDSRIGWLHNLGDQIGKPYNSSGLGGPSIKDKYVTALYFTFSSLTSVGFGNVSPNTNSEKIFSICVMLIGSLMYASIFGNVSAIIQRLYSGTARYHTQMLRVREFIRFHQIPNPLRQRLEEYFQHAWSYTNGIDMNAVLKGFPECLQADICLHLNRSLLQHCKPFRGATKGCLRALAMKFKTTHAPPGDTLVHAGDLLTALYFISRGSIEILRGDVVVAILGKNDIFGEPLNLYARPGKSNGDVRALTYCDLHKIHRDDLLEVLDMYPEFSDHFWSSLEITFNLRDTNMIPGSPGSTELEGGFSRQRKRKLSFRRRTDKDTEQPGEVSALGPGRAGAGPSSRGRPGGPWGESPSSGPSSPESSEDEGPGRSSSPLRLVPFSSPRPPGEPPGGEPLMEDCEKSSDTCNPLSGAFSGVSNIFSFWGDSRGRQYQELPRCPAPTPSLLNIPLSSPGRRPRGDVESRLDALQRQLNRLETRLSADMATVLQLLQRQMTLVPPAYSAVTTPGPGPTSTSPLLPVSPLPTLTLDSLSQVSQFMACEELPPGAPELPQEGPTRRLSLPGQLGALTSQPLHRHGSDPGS
# protocol.notes: primary screen, population patch clamp on CHO cells stably expressing hERG; higher = less effect of the substance
Screen size: about 310,000 compounds; about 2,200 (0.71%) showed an effect of 50% or more. The effect is printed as a negative number. Many of the other results were omitted from the sample, so strong results are more common in it than they were.
For each of the compounds below, state its hERG current change (%, negative = inhibition) at 1uM.
Your reply should be a number followed by the unit it is expressed in.

Examples from the recorded data:
smiles_input=O=S(=O)(Nc1nc2ccccc2nc1NCCN1CCOCC1)c1cccc(Cl)c1 assay_value=8.11%
smiles_input=CN1C[C@@H]2C[C@@H](c3cccn3-c3nccs3)N3CCC[C@@]23C1=O assay_value=1.26%
smiles_input=CCOc1ccc(NC(=O)C(=O)NCCN2CCN(C(=O)c3ccc(C)cc3)CC2)cc1 assay_value=-65.5%
smiles_input=Cc1cc(C)c([C@@H]2C[C@H]3CN(C4CCCC4)C(=O)[C@]34CCCN24)c(-n2cccn2)c1 assay_value=-71.7%
smiles_input=COc1ccc(N=C2SCCCN2C)cc1.I assay_value=15.8%

Provide the reported hERG current change (%, negative = inhibition) at 1uM of each entry below, same order.
1. O=C1N(C2CCCC2)C[C@@H]2C[C@@H](c3cccn3-c3nccs3)N3CCC[C@@]123
2. O=C(NCCN1CCN(C(=O)c2ccc(F)cc2)CC1)C(=O)NCc1ccccc1
3. O=C(CCS(=O)(=O)Cc1ccccc1)N1CCc2ccccc2C1
4. CCC(=O)c1ccc(OCC(=O)OCC(=O)NC2CCCC2)cc1

[out]
1: -60.3%; 2: -75.1%; 3: 8.69%; 4: 14.5%

---

For each of the compounds below, state its hERG current change (%, negative = inhibition) at 1uM.
# study.target: human ether-à-go-go-related gene (hERG) potassium channel (human, UniProt Q12809)
# protocol.notes: primary screen, population patch clamp on CHO cells stably expressing hERG; higher = less effect of the substance
In all, about 310,000 compounds went through this assay and about 2,200 (0.71%) showed an effect of 50% or more. Effects have a minus sign here. What follows is part of a selection rich in strong results, with near analogues and random picks from the rest.
Give bare numbers, in %.

Examples from the recorded data:
compound=CCOC(=O)N1CCN(c2cc(=O)n(-c3ccc(C)cc3)c(=O)[nH]2)CC1 unit=% assay_value=-8.88
compound=O=C(Nc1cccc(NC(=O)c2ccc(Cl)cc2)n1)c1ccc(Cl)cc1 unit=% assay_value=14.3
compound=COCCN=C1Sc2nc3cc(C)c(C)cc3cc2CN1Cc1cccs1 unit=% assay_value=8.08
compound=CCCC(=O)NC(=S)Nc1ccc(NC(=O)c2cccs2)cc1 unit=% assay_value=-3.11
compound="Cc1ccc(N2C(=O)C(CN3CCCC3)C2c2ccccc2)cc1 (centres unmarked)" unit=% assay_value=-70.6
compound="C=CCN1CCN(C(c2cc(OC)ccc2OC)c2nnnn2CC2CCCO2)CC1.Cl (centres unmarked)" unit=% assay_value=12.4
compound="[O-][Cl+3]([O-])([O-])[O-].c1ccc(-c2[nH]c(-c3ccccc3)[n+](CC3CO3)c2-c2ccccc2)cc1 (centres unmarked)" unit=% assay_value=-2.8
compound=COc1cc(/C=N/N2CCN(Cc3ccc(Cl)cc3)CC2)cc(Br)c1O unit=% assay_value=9.38

Provide the reported hERG current change (%, negative = inhibition) at 1uM of each entry below, same order.
1. C[C@@H]1CN(Cc2nc(Cc3ccccc3F)no2)C[C@H](C)O1
2. COc1ccc(NC(=O)c2cc([N+](=O)[O-])ccc2NC(=O)CNC2CCCCC2C)c(OC)c1 (centres unmarked)
3. Cc1ccc(N(CC(=O)NC(C)(C)C)C(=O)CNC(=O)c2cccs2)cc1
4. CCC(C)[C@H](NC(=O)C1CC(=O)N(c2ccc3c(c2)OCO3)C1)C(=O)NC1CCCCC1 (some centres unmarked)
5. Cc1ccc2c(CC(=O)N(C)c3c(N)n(Cc4ccccc4)c(=O)[nH]c3=O)coc2c1
6. CCN(C(=O)CSc1nnnn1-c1ccccc1)c1c(N)n(Cc2ccccc2)c(=O)[nH]c1=O
7. COc1ccc(C)cc1C1=Nc2ccccc2C1(C)C
8. CCSc1nnc(NC(=O)Nc2cccc(C)c2)s1

[out]
[8.68, -78.8, 7.4, 29.5, 8.06, 15.9, 13.4, 12.2]
